# test-method-notes: Metabolic stability in mouse liver microsomes assessed as parent compound remaining in presence of NADPH by LC-MS/MS method
# Assay type: ADME
Reported Stability values are given for each entry in this list.

{"molecule": "CCCC(c1ccc2c(c1)CCO2)N(C)Cc1ccc(OCCN2C(=O)CCC2=O)c(OC)c1 (stereo not given)", "readout-unit": "%", "Stability": 8}
{"molecule": "COc1cc(CN(Cc2ccc(C(=O)O)cc2)[C@H](C)c2ccc(Cl)cc2)ccc1OCCN1C(=O)CCC1=O", "readout-unit": "%", "Stability": 100}
{"molecule": "CCc1cc(CN(C[C@H]2CC[C@H](C(=O)O)CC2)[C@H]2CCc3cc(Cl)ccc32)ccc1OCCN1C(=O)CCC1=O", "readout-unit": "%", "Stability": 96}
{"molecule": "CCC(c1ccc2c(c1)CCO2)N(Cc1ccc(C(=O)O)cc1)Cc1ccc(OCCN2C(=O)CCC2=O)c(OC)c1 (stereo not given)", "readout-unit": "%", "Stability": 78}
{"molecule": "Cc1cc(CN(C[C@H]2CC[C@H](C(=O)O)CC2)[C@@H](C)c2ccc(Cl)cc2)ccc1OCCN1C(=O)CN(C)C1=O", "readout-unit": "%", "Stability": 100}
{"molecule": "COc1cc(CN(C[C@H]2CC[C@H](C(=O)O)CC2)[C@@H](C)c2ccc(Cl)cc2)ccc1OCCN1C(=O)CCC1=O", "readout-unit": "%", "Stability": 91}
{"molecule": "Cc1cc(CN(C)C(C)c2ccc3c(c2)CCO3)ccc1OCCN1C(=O)CCC1=O (stereo not given)", "readout-unit": "%", "Stability": 19}
{"molecule": "Cc1cc(CN(C[C@H]2CC[C@H](C(=O)O)CC2)[C@@H](C)c2ccc(Cl)cc2)ccc1OCCN1C(=O)CCC1=O", "readout-unit": "%", "Stability": 87}
{"molecule": "COc1cc(CN(CC2CCCCC2)C(C)c2ccc3c(c2)CCO3)ccc1OCCN1C(=O)CCC1=O (stereo not given)", "readout-unit": "%", "Stability": 27}
{"molecule": "COc1cc(CN(CCCC(=O)O)C(C)c2ccc3c(c2)CCO3)ccc1OCCN1C(=O)CCC1=O (stereo not given)", "readout-unit": "%", "Stability": 95}

###

# test-method-notes: Metabolic stability in mouse liver microsomes assessed as parent compound remaining in presence of NADPH by LC-MS/MS method
# Assay type: ADME
// NB: equality with 80% counts as no; only Stability strictly below is yes

{"molecule": "COc1cc(CN(CCO)C(C)c2ccc3c(c2)CCO3)ccc1OCCN1C(=O)CCC1=O (stereo not drawn)", "class-label": "yes"}
{"molecule": "COc1cc(CN(Cc2ccc3c(c2)CCO3)C(C)c2ccc3c(c2)CCO3)ccc1OCCN1C(=O)CCC1=O (stereo not drawn)", "class-label": "yes"}
{"molecule": "COc1cc(CN(Cc2ccc(-c3nnn[nH]3)cc2)C(C)c2ccc3c(c2)CCO3)ccc1OCCN1C(=O)CCC1=O (stereo not drawn)", "class-label": "yes"}
{"molecule": "Cc1cc(CN(C[C@H]2CC[C@H](C(=O)O)CC2)C(C)c2ccc3c(c2)CCO3)ccc1OCCN1C(=O)CCC1=O (stereo partly drawn)", "class-label": "no"}
{"molecule": "COc1cc(CN(C[C@H]2CC[C@H](C(=O)O)CC2)[C@H]2CCc3cc(Cl)ccc32)ccc1CCCN1C(=O)CCC1=O", "class-label": "yes"}
{"molecule": "COc1cc(CN(C[C@H]2CC[C@H](C(=O)O)CC2)C(C)c2ccc3c(c2)CCO3)ccc1OCCN1C(=O)CCC1=O (stereo partly drawn)", "class-label": "no"}

###

Reported Stability values are given for each entry in this list.
# test-method-notes: Metabolic stability in human liver microsomes assessed as parent compound remaining in presence of NADPH by LC-MS/MS method
# Format: ADME
recorded-metric: Stability (%)

{"molecule": "COc1cc(CN(C[C@H]2CC[C@H](C(=O)O)CC2)[C@@H](C)c2ccc(Cl)cc2)ccc1OCCN1C(=O)CCC1=O", "assay-value": 91}
{"molecule": "Cc1cc(CN(C[C@H]2CC[C@H](C(=O)O)CC2)[C@H]2CCc3cc(Cl)ccc32)ccc1OCCN1C(=O)CCC1=O", "assay-value": 78}
{"molecule": "COc1cc(CN(C[C@H]2CC[C@H](C(=O)O)CC2)[C@H]2CCc3c2ccc(Cl)c3Cl)ccc1OCCN1C(=O)CCC1=O", "assay-value": 75}
{"molecule": "CCc1cc(CN(C[C@H]2CC[C@H](C(=O)O)CC2)[C@H]2CCc3cc(Cl)ccc32)ccc1OCCN1C(=O)CCC1=O", "assay-value": 94}
{"molecule": "COc1cc(CN(CC23CCC(C(=O)O)(CC2)CC3)C(C)c2ccc3c(c2)CCO3)ccc1OCCN1C(=O)CCC1=O (stereo not drawn)", "assay-value": 71}
{"molecule": "COc1cc(CN(CCCC(=O)O)C(C)c2ccc3c(c2)CCO3)ccc1OCCN1C(=O)CCC1=O (stereo not drawn)", "assay-value": 100}
{"molecule": "COc1cc(CN(CC(C)=O)C(C)c2ccc3c(c2)CCO3)ccc1OCCN1C(=O)CCC1=O (stereo not drawn)", "assay-value": 2}
{"molecule": "COc1cc(CN(CC2CCCCC2)C(C)c2ccc3c(c2)CCO3)ccc1OCCN1C(=O)CCC1=O (stereo not drawn)", "assay-value": 35}

###

# study-system: Alpha-1A adrenergic receptor (Homo sapiens) (UniProt P35348)
# Sequence (whole entry): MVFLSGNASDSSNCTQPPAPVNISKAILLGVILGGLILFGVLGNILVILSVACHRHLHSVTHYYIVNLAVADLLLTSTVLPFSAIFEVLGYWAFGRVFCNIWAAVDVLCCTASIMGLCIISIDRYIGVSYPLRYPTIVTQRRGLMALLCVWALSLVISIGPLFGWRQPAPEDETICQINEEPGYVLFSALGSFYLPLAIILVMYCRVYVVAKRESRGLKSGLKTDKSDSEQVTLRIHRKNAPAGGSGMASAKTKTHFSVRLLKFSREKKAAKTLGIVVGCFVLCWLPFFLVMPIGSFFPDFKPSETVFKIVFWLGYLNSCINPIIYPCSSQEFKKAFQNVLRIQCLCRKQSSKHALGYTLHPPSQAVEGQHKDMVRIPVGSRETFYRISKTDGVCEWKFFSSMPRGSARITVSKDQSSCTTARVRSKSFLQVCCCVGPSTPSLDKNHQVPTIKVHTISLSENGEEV
# test-method-notes: Displacement of [3H]prazosin from recombinant human alpha 1A adrenergic receptor expressed in CHO cells at 10 uM after 60 mins by scintillation counting method relative to control
# Assay type: cell-based
recorded-metric: inhibition (%)

{"compound": "COc1cc(CN(C[C@H]2CC[C@H](C(=O)O)CC2)C2CCc3cc(Cl)ccc32)ccc1OCCN1C(=O)CCC1=O (some centres undefined)", "comparator": "=", "assay-value": 52}
{"compound": "Cc1cc(CN(C[C@H]2CC[C@H](C(=O)O)CC2)[C@@H](C)c2ccc(Cl)cc2)ccc1OCCN1C(=O)CCC1=O", "comparator": "=", "assay-value": 71}
{"compound": "COc1cc(CN(C)C(C)c2ccc3c(c2)CCO3)ccc1OCCN1C(=O)CCC1=O (centres undefined)", "comparator": ">", "assay-value": 65}
{"compound": "COc1cc(CN(C[C@H]2CC[C@H](C(=O)O)CC2)[C@H]2CCc3cc(Cl)ccc32)ccc1OCCN1C(=O)CCC1=O", "comparator": "=", "assay-value": 25}

###

# test-method-notes: Apparent permeability across human Caco2 cells after 2 hrs by LC-MS method
# Type: ADME, cell-based
# measurement-parameters: Caco-2

{"compound": "COc1cc(CN(C[C@H]2CC[C@H](C(=O)O)CC2)C2CCc3cc(Cl)ccc32)ccc1OCCN1C(=O)CCC1=O (stereo partly specified)", "Papp at 2 h, ×10⁻⁶ cm/s": 8.98}
{"compound": "COc1cc(CN(C[C@H]2CC[C@H](C(=O)O)CC2)[C@@H](C)c2ccc(Cl)cc2)ccc1OCCn1c(=O)ccn(C)c1=O", "Papp at 2 h, ×10⁻⁶ cm/s": 8.01}
{"compound": "Cc1cc(CN(C[C@H]2CC[C@H](C(=O)O)CC2)C(C)c2ccc3c(c2)CCO3)ccc1OCCN1C(=O)CCC1=O (stereo partly specified)", "Papp at 2 h, ×10⁻⁶ cm/s": 2.22}
{"compound": "COc1cc(CN(C[C@H]2CC[C@H](C(=O)O)CC2)[C@H]2CCc3cc(Cl)ccc32)ccc1SCCN1C(=O)CCC1=O", "Papp at 2 h, ×10⁻⁶ cm/s": 7.24}
{"compound": "COc1cc(CN(CC23CCC(C(=O)O)(CC2)CC3)C(C)c2ccc3c(c2)CCO3)ccc1OCCN1C(=O)CCC1=O (stereo unspecified)", "Papp at 2 h, ×10⁻⁶ cm/s": 6.56}
{"compound": "COc1cc(CN(C[C@H]2CC[C@H](C(=O)O)CC2)[C@H]2CCc3cc(Cl)ccc32)ccc1CCCN1C(=O)CCC1=O", "Papp at 2 h, ×10⁻⁶ cm/s": 16.5}

The reported measurements were obtained from ChEMBL document CHEMBL3864163.
